The values you see were collected from patent US10869933B2.

Measured logP, listed per entry.
Assay: Log P determination (Sirius GLpKa)
Assay type: physicochemical
Conditions: Partition Log P, average of three measurements; read-out: LogP
Experimental: A blank standardization has to be completed first and passed in order to conduct the compound experiments. The solutions used by the instrument for the blank titration include water, a pH solution, and a surfactant (TRITON X-100). The TRITON X-100 was purchased commercially from Sirus. The 0.5% solution of TRITON X-100 was used in the experiment. […] The blank is calculated as an average of three “good” experiments. […] Once the blank was run successfully the instrument was ready to conduct the experiments. […]
Write the value as a bare number.

Would you please look over these solved cases?
{"molecule": "CC(CN1c2ccccc2Sc2ccccc21)N(C)C (stereo not drawn) [Promethazine, reference compound]", "measurement_kind": "logP", "recorded_result": 3.43}
{"molecule": "COCCOCCOCCOCCN(C)C(C)CN1c2ccccc2Sc2ccccc21 (stereo not drawn)", "measurement_kind": "logP", "recorded_result": 3.51}
{"molecule": "COCCOCCOCCOCCOCCN(C)C(C)CN1c2ccccc2Sc2ccccc21 (stereo not drawn)", "measurement_kind": "logP", "recorded_result": 3.6}
{"molecule": "COCCOCCOCCN(C)C(C)CN1c2ccccc2Sc2ccccc21 (stereo not drawn)", "measurement_kind": "logP", "recorded_result": 3.65}
{"molecule": "COCCOCCOCCOCCOCCOCCN(C)C(C)CN1c2ccccc2Sc2ccccc21 (stereo not drawn)", "measurement_kind": "logP", "recorded_result": 3.25}

Next:
stdin: Which value of logP has been reported for COCCOCCOCCOCCOCCOCCOCCN(C)C(C)CN1c2ccccc2Sc2ccccc21 (stereo not drawn) in the records?
stdout: 3

----------
Measured Ki, listed per entry.
Biological target: recombinant human H2 histamine receptor (Homo sapiens, UniProt P25021)
Construct: expressed in transfected cells; host or cells: CHO cells (membranes)
Sequence (P25021 whole entry): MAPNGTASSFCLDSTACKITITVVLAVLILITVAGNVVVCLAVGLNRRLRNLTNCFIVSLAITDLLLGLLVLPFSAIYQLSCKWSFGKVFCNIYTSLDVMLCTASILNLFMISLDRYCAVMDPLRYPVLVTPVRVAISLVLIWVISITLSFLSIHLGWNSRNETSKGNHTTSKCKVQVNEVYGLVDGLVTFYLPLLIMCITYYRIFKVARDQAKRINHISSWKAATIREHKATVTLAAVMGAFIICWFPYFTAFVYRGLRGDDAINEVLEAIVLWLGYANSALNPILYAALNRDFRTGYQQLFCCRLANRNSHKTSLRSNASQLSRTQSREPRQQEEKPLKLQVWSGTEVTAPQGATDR
Test: Histamine H2 receptor radioligand binding
Details: [125I]-Aminopotentidine 0.1 nM, human rCHO-K1 cell membranes; up to 30 μM

Would you please look over these solved cases?
{"compound": "COCCOCCOCCOCCOCCOCc1ccc2c(c1)Sc1ccccc1N2CC(C)N(C)C (stereo not drawn)", "measurement_kind": "Ki", "recorded_result": "> 30 µM"}
{"compound": "COCCOCCOCCOCCOCCOCCOCCN(C)C(C)CN1c2ccccc2Sc2ccccc21 (stereo not drawn)", "measurement_kind": "Ki", "recorded_result": "> 30 µM"}

Next:
stdin: Which value of Ki has been reported for COCCOCCOCCOCCOCCOCCOCCOCCOCCOCc1ccc2c(c1)Sc1ccccc1N2CC(C)N(C)C (stereo not drawn) in the records?
stdout: > 30 µM

----------
Assay: Brain:plasma ratio
Assay type: in vivo
Conditions: rat, brain and plasma, iv; rats, 5 mg/kg intravenously, one hour after injection; brain (ng/g) / plasma (ng/mL)
Measured Kp at 1 h, listed per entry.
Write the value as a bare number.

Would you please look over these solved cases?
{"compound": "COCCOCCOCCOCCOCCOCCOCCN(C)C(C)CN1c2ccccc2Sc2ccccc21 (stereo not shown)", "Kp at 1 h": 0.112}
{"compound": "COCCOCCOCCOCCN(C)C(C)CN1c2ccccc2Sc2ccccc21 (stereo not shown)", "Kp at 1 h": 1.86}
{"compound": "COCCOCCOCCOCCOCCN(C)C(C)CN1c2ccccc2Sc2ccccc21 (stereo not shown)", "Kp at 1 h": 0.243}

Next:
stdin: Which value of Kp at 1 h has been reported for COCCOCCOCCOCCOCCOCCN(C)C(C)CN1c2ccccc2Sc2ccccc21 (stereo not shown) in the records?
stdout: 0.098
